Would you kindly list binding signal for each of these sequences?
SYSTEM_NAME: POU1 (OCT1 POU domain) (human, UniProt P14859 260-458)
Sequence (P14859 260-458): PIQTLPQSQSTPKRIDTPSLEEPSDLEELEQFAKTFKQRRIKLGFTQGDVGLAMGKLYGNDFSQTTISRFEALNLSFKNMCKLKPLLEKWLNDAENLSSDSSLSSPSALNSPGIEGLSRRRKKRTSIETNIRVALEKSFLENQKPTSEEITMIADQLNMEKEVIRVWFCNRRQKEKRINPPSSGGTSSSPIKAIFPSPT
ASSAY_COMMENT: EMSA-SELEX-seq; no BOB1; 20 mM Tris-HCl pH 7.6, 140 mM NaCl, 10% glycerol, 0.5 mM EDTA, 0.05% Triton X-100, 0.1 mg/mL BSA, 0.1 mg/mL poly(dI-dC), 5 mM DTT, room temperature, 20 min; high values mean tight binding
CONDITION: protein: recombinant; dsDNA, one strand shown

State its binding signal on POU1 (OCT1 POU domain) (human, UniProt P14859 260-458): ACAGAAAC
0.0278 % of ANNNNAAN 8-mers

Subsequent entry: ATGTGAAT
0.138 % of ANNNNAAN 8-mers

Subsequent entry: AGTATAAA
0.0744 % of ANNNNAAN 8-mers

Subsequent entry: ATTATAAT
0.94 % of ANNNNAAN 8-mers

Subsequent entry: ACAAAAAG
0.0549 % of ANNNNAAN 8-mers

Subsequent entry: AGGTGAAC
0.021 % of ANNNNAAN 8-mers

Subsequent entry: AGGCCAAG
0.0271 % of ANNNNAAN 8-mers

Subsequent entry: AACTTAAG
0.0351 % of ANNNNAAN 8-mers

Subsequent entry: AGAAAAAA
0.0767 % of ANNNNAAN 8-mers

Subsequent entry: ACTCAAAT
0.0889 % of ANNNNAAN 8-mers

Subsequent entry: ATGTTAAG
0.128 % of ANNNNAAN 8-mers

Subsequent entry: AGGGAAAG
0.194 % of ANNNNAAN 8-mers

Subsequent entry: AAGTGAAA
0.0721 % of ANNNNAAN 8-mers

Subsequent entry: AGTTCAAG
0.0297 % of ANNNNAAN 8-mers

Subsequent entry: ACCGAAAG
0.0137 % of ANNNNAAN 8-mers

Subsequent entry: AACCAAAA
0.0522 % of ANNNNAAN 8-mers

Subsequent entry: AGACGAAG
0.0198 % of ANNNNAAN 8-mers

Subsequent entry: AAATCAAC
0.0759 % of ANNNNAAN 8-mers

Subsequent entry: ATGGTAAC
0.0454 % of ANNNNAAN 8-mers

Subsequent entry: AGCTAAAC
0.0187 % of ANNNNAAN 8-mers

Subsequent entry: AAACTAAA
0.0503 % of ANNNNAAN 8-mers

Subsequent entry: ACCACAAA
0.0141 % of ANNNNAAN 8-mers
